Assay: Rat tissue distribution after i.v. bolus
Format: in vivo, Sprague-Dawley rats
Conditions: male, Sprague-Dawley, rat, kidney, lung, liver, spleen / plasma, iv; rats, 5 mg/kg i.v.; read-out: Tissue/plasma AUC ratio, fold higher in major organs (kidney, lung, liver, spleen) than in plasma
Starred links: 1 amine or outer side, 2 acyl side, 3 side chain; linkers in the order of their positions; H or OH if unused. Positions of bridges follow the written chain, without caps; N, C: chain ends. Non-standard residues stand in square brackets, D forms with d. Residues, ends and D or L forms follow the SMILES beside them. *: point of attachment. Orn(4R-OH,5R-OCH2CH2NMe3+) = C[N+](C)(C)CCO[C@@H](N[*:3])[C@H](O)C[C@H](N[*:1])C(=O)[*:2]; pTerphenylCO(4''-OnC5H11) = CCCCCOc1ccc(-c2ccc(-c3ccc(C(=O)*)cc3)cc2)cc1; hTyr(3S-OH,4S-OH) = N[C@H](C(=O)O)[C@H](O)[C@@H](O)c1ccc(O)cc1; Pro(3S-OH,4S-Me) = C[C@H]1CN[C@H](C(=O)O)[C@H]1O; Hyp = O=C(O)[C@@H]1C[C@@H](O)CN1
READOUT LABEL: Kp

The measured Kp associated with CCCCCOc1ccc(-c2ccc(-c3ccc(C(=O)N[C@H]4C[C@@H](O)[C@@H](OCC[N+](C)(C)C)NC(=O)[C@@H]5[C@@H](O)[C@@H](C)CN5C(=O)[C@H]([C@@H](C)O)NC(=O)[C@H]([C@H](O)[C@@H](O)c5ccc(O)cc5)NC(=O)[C@@H]5C[C@@H](O)CN5C(=O)[C@H]([C@@H](C)O)NC4=O)cc3)cc2)cc1 [CD101] ({pTerphenylCO(4''-OnC5H11)}-[Orn(4R-OH,5R-OCH2CH2NMe3+)]T[Hyp][hTyr(3S-OH,4S-OH)]T[Pro(3S-OH,4S-Me)]; lactam 1-C) reads 4 to 5

Hey, just so you know, these numbers are from paper PMC5365648.
